Data origin: patent US12043602B2

Test system: MiaPaCa-2 (Mut) pancreatic tumor cells
Test: CyQUANT proliferation assay
Type: cell-based
Settings: Table 11, pancreatic; read-out: IC50 (μM) MiaPaCa-2 (Mut)
Parameter: IC50

Item under review: COc1ccc([C@@H](C)N(CC=C(c2ccccc2)c2ccccc2)CC=C(c2ccccc2)c2ccccc2)cc1 [Compound 7, reference compound] . Reported IC50?
> 30 µM

====

Biological target: mGFP-K-RASG12V (Homo sapiens (Human), UniProt P01116, G12V)
Assay: K-Ras mislocalization assay (confocal microscopy, Manders coefficient)
Format: cell-based
Set-up: key: Manders coefficient: fraction of mCherry-CAAX co-localizing with GFP-K-Ras
Conditions: maximal effect, Manders coefficient; MDCK cells, 48 h
As shown below, each of these molecules has a reported Emax value.
Hey, just send me the number, nothing else.

Worked set:
COc1ccc([C@@H](C)N(CC=C(c2ccccc2)c2ccccc2)C(=O)CN2CCCC2)cc1 : 0.452
COc1ccc([C@H](C)N(CC=C(c2ccccc2)c2ccccc2)CCN2CCN(C)CC2)cc1 : 0.827
Brc1cccc(CN(CC=C(c2ccccc2)c2ccccc2)CCN2CCCC2)n1 : 0.801
COc1ccc([C@@H](C)N(CC=C(c2ccccc2)c2ccccc2)CCN2CCN(C(=O)NC(C)(C)C)CC2)cc1 : 0.827
COc1ccc([C@@H](C)N(CC=C(c2ccccc2)c2ccccc2)CC(=O)N2CCc3ccccc3C2)cc1 : 0.522
COC(=O)[C@H](NCC=C(c1ccccc1)c1ccccc1)c1ccccc1 : 0.424
COc1ccc([C@@H](C)N(CC=C(c2ccccc2)c2ccccc2)C(=O)NC(C)(C)C)cc1 : 0.891

Could you now consider this next molecule?
Item under review: `C(CNC1(c2ccccc2)CC1)=C(c1ccccc1)c1ccccc1` . Reported Emax?
0.835

====

As shown below, each of these compounds has a reported Emax value.
Molecular target: mGFP-K-RASG12V (Homo sapiens (Human), UniProt P01116, G12V)
Assay: K-Ras mislocalization assay (confocal microscopy, Manders coefficient)
Format: cell-based
Parameters: key: Manders coefficient: fraction of mCherry-CAAX co-localizing with GFP-K-Ras
Settings: maximal effect, Manders coefficient; MDCK cells, 48 h
Hey, just send me the number, nothing else.

Item COc1ccc([C@@H](C)N(CC=C(c2ccccc2)c2ccccc2)CCN2CCN(C(=O)OC(C)(C)C)CC2)cc1 [NY345] with mGFP-K-RASG12V (Homo sapiens (Human), UniProt P01116, G12V) - Emax?
0.819

What do you have for COc1ccc(C(=CCN(CCN2CCCC2)[C@H](C)c2ccc(F)cc2)c2ccc(OC)cc2)cc1 [PW356] ?
0.641

What do you have for C[C@H](c1ccc([N+](=O)[O-])cc1)N(CC=C(c1ccccc1)c1ccccc1)CCN1CCN(C)CC1 [NY0522] ?
0.621

What do you have for C[C@@H](CNCC=C(c1ccccc1)c1ccccc1)c1ccccc1 [NY022702] ?
0.608

What do you have for CCOC(CCCN(CC=C(c1ccccc1)c1ccccc1)[C@H](C)c1ccc(OC)cc1)OCC [NY348] ?
0.963

What do you have for C[C@H](c1ccc(F)cc1)N(C/C=C(/c1ccc(F)cc1)c1ccc(C(F)(F)F)cc1)CCN1CCCC1 [PW455] ?
0.821

What do you have for C(CN(CC=C(c1ccccc1)c1ccccc1)[C@@H]1C[C@H]1c1ccccc1)=C(c1ccccc1)c1ccccc1 [NY022601] ?
0.713

What do you have for C[C@H](c1ccc(F)cc1)N(CCN1CCCC1)C(=O)Nc1ccc(C(F)(F)F)cc1 [PW321] ?
0.587
